Item-by-item account of IC50
- target: HDAC3/NcoR2 complex (Homo sapiens, UniProt O15379)
- Construct: purchased BPS Bioscience 50003
- Sequence (O15379 whole entry): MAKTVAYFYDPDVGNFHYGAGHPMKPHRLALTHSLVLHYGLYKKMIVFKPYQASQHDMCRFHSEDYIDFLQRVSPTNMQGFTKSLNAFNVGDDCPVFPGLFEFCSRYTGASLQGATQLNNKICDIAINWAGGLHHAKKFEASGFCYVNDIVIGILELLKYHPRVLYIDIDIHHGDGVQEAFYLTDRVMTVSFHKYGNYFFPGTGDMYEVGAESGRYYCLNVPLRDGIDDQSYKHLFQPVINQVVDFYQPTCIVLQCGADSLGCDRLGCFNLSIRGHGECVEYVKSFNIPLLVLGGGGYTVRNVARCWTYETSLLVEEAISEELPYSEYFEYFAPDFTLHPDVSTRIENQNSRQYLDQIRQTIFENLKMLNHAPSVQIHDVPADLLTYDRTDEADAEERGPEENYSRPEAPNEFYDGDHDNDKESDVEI
- Sequence (Q9Y618 395-489 partner limits assumed): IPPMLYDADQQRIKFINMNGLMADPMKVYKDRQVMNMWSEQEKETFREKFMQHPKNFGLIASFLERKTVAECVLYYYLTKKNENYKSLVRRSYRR
- experimental.protocol: HDAC-Glo I/II enzymatic assay, HDAC3
- Type: biochemical
- condition.label: read-out: HDAC3 pIC50 (converted)

Form field: reported IC50 of CN(C)Cc1cn(Cc2ccc(C(=O)NO)cc2)c2cc(C(=O)NO)ccc12 [Compound 3b]
6.92 µM

Form field: reported IC50 of O=C(NO)c1ccc(Cn2ccc3ccc(C(=O)NO)cc32)cc1 [Compound 3a]
5.5 µM

Form field: reported IC50 of CN(C)CCn1cc(Cc2ccc(C(=O)NO)cc2)c2cc(C(=O)NO)ccc21 [Compound 3e]
6.61 µM

Form field: reported IC50 of CN(C)Cc1nn(Cc2ccc(C(=O)NO)cc2)c2cc(C(=O)NO)ccc12 [Compound 3g]
6.61 µM

Origin of measurements: paper PMC7335359
